System: Caco-2 cells
experiment_summary: LDH release of Caco-2 cells
Type: cell-based, human
condition_description: Caco-2 J4, 100 μM
readout: % LDH/control 100 μM

Form field % LDH/control 100 μM, entry NCCCNCCCNCc1ccc2cccc(O)c2n1 : 261%

Form field % LDH/control 100 μM, entry NCCCCNCCCCNCCCNCc1ccc2cccc(O)c2n1 : 120%

Form field % LDH/control 100 μM, entry NCCCNCCCCNCCCCNCc1ccc2cccc(O)c2n1 : 189%

Form field % LDH/control 100 μM, entry Oc1cccc2cccnc12 [8-hydroxyquinoline, reference compound] : 353%

Form field % LDH/control 100 μM, entry NCCCNCCCNCCCNCc1ccc2cccc(O)c2n1 : 169%

Form field % LDH/control 100 μM, entry NCCCCNCCCNCc1ccc2cccc(O)c2n1 : 229%

Form field % LDH/control 100 μM, entry NCCCCNCCCCNCc1ccc2cccc(O)c2n1 : 287%
